Here, each record is paired with measured Internalized in LNCaP fmol/10^6 cells 30 min data.
Biological target: PSMA-expressing LNCaP cells (Homo sapiens)
Construct: PSMA-expressing LNCaP cells; endogenous in cells; host or cells: LNCaP
Sequence (Q04609 whole entry): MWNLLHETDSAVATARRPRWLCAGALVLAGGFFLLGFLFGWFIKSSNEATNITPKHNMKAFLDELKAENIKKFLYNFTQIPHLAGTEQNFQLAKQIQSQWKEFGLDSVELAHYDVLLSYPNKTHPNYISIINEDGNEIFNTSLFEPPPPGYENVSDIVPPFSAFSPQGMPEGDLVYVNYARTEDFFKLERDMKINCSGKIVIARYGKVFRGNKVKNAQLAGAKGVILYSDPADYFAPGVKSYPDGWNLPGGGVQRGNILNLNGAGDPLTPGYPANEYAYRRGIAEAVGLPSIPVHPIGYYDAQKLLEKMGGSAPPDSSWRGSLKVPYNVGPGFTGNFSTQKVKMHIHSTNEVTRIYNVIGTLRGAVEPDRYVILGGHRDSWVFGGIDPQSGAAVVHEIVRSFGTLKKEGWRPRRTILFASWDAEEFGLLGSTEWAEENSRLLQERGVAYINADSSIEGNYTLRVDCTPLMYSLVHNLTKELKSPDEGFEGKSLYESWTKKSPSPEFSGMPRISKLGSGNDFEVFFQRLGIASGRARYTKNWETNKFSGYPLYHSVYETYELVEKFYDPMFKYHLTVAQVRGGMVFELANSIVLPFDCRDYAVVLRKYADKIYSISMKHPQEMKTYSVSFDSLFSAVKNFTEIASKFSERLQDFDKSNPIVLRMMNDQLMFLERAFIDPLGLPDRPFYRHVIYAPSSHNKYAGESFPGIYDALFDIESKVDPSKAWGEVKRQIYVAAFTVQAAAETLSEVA
Assay: Internalization assay (membrane bound and internalized Th-227)
Assay type: cell-based
Conditions: 10 nM radiolabeled compound, Th-227 at 375 kBq/nmol; 30 min incubation; triplicates
The response must be a number in fmol/10^6 cells with no trailing unit.

# query: Internalized in LNCaP fmol/10^6 cells 30 min of entry Cc1cc2c(c(=O)n1CC(=O)O)[O][227Th]13[O]c4c(cc(C)n(CC(=O)O)c4=O)C(=O)NCCN(CCCN(CCNC2=O)CCNC(=O)c2cc(C)n(CC(=O)NCc4ccc(C(=O)N[C@@H](Cc5ccc6ccccc6n5)C(=O)NCCCC[C@H](NC(=O)N[C@@H](CCC(=O)O)C(=O)O)C(=O)O)nc4)c(=O)c2[O]1)CCNC(=O)c1cc(C)n(CC(=O)NCc2ccc(C(=O)N[C@@H](Cc4ccc5ccccc5n4)C(=O)NCCCC[C@H](NC(=O)N[C@@H](CCC(=O)O)C(=O)O)C(=O)O)nc2)c(=O)c1[O]3 [34-C dimer-227Th]
100

Can you handle O=C([O-])CN1CCN(CC(=O)[O-])CCN(CC(=O)NCC2CCC(C(=O)NC(Cc3ccc4ccccc4c3)C(=O)NCCCCC(NC(=O)NC(CCC(=O)O)C(=O)O)C(=O)O)CC2)CCN(CC(=O)[O-])CC1.[227Th+4] [Example 1-B-D-227Th] next?
3

Can you handle Cn1ccc2c(c1=O)[O][Th]13[O]c4c(ccn(C)c4=O)C(=O)NCCN(CCNC2=O)CC(Cc2ccc(NC(=O)CCC(=O)N[C@H](CCCNC(=N)N)C(=O)N[C@H](CCCNC(=N)N)C(=O)NC[C@H]4CC[C@H](C(=O)N[C@@H](Cc5ccc6ccccc6c5)C(=O)NCCCC[C@H](NC(=O)N[C@@H](CCC(=O)O)C(=O)O)C(=O)O)CC4)cc2)CN(CCNC(=O)c2ccn(C)c(=O)c2[O]1)CCNC(=O)c1ccn(C)c(=O)c1[O]3 (stereo partly drawn) [Example 46-E-227Th] next?
34

Can you handle CC1=CC2=C3[O][227Th-5]45678([O]C9=C(C=C(C)N(CC(=O)O)C9=[O+]4)C(=O)NCCN(CCCN(CCNC(=O)C4=C([O]5)C(=[O+]6)N(CC(=O)O)C(C)=C4)CCNC(=O)C4=C([OH+]7)C(=[O+]8)N(CC(=O)NC[C@H]5CC[C@H](C(=O)N[C@@H](Cc6ccc7ccccc7c6)C(=O)NCCCC[C@H](NC(=O)N[C@@H](CCC(=O)O)C(=O)O)C(=O)O)CC5)C(C)=C4)CCNC2=O)[O+]=C3N1CC(=O)O [1-C monomer-227Th] next?
84

Can you handle O=C([O-])CN1CCN(CC(=O)[O-])CCN(CC(=O)NCC2CCC(C(=O)NC(Cc3ccc4ccccc4c3)C(=O)NCCCCC(NC(=O)NC(CCC(=O)O)C(=O)O)C(=O)O)CC2)CCN(CC(=O)[O-])CC1.[227Th+4] (stereo not drawn) [Example 1-B-227Th] next?
55

Can you handle Cc1cc2c(c(=O)n1CC(=O)O)[O][227Th]13[O]c4c(cc(C)n(CC(=O)O)c4=O)C(=O)NCCN(CCCN(CCNC(=O)c4cc(C)n(CC(=O)O)c(=O)c4[O]1)CCNC(=O)c1cc(C)n(CC(=O)NCc4ccc(C(=O)N[C@@H](Cc5ccc6ccccc6n5)C(=O)NCCCC[C@H](NC(=O)N[C@@H](CCC(=O)O)C(=O)O)C(=O)O)nc4)c(=O)c1[O]3)CCNC2=O [34-C monomer-227Th] next?
75

The measurements presented in this section are drawn from patent US20230072421A1.
